target of assay: TAOK2 (Homo sapiens)
Construct: purchased Carna Biosciences
Sequence (Q9UL54 whole entry): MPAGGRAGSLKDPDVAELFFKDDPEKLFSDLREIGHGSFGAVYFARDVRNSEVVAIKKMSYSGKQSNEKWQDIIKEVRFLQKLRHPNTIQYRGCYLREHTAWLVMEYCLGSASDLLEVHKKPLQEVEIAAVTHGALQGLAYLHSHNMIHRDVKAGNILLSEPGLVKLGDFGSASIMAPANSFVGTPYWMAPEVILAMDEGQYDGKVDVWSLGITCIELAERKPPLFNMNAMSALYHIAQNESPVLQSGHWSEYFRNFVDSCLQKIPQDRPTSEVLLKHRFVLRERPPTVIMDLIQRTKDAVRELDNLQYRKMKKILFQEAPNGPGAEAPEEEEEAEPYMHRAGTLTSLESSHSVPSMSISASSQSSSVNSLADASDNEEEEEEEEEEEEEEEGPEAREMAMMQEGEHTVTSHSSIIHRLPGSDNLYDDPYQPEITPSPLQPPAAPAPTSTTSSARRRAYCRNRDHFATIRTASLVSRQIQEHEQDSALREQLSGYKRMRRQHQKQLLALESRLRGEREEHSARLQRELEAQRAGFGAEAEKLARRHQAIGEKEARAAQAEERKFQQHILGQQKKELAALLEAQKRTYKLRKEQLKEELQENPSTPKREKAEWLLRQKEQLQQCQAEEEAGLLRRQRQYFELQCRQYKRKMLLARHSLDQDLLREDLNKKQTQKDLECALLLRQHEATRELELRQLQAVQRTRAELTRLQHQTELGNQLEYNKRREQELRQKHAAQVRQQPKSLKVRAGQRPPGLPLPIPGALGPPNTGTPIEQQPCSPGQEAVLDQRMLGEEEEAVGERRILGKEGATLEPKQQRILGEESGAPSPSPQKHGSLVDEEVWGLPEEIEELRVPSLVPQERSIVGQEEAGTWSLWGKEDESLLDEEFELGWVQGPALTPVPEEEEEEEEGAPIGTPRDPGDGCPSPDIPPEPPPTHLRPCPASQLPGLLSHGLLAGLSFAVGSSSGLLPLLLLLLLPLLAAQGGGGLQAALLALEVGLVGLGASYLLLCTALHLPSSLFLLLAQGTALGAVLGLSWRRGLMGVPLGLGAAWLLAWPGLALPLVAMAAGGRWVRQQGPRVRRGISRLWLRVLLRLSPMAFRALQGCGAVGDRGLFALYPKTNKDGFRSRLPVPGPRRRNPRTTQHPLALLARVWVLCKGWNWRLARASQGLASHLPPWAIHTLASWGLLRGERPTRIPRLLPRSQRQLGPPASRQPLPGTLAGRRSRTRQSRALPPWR
measurement protocol: Kinase panel profiling at 1 µmol/L (mobility shift assay, Carna)
Type: biochemical
experimental conditions: 1 µmol/L of BTK inhibitor
endpoint label: Percentage inhibition of kinase enzyme activity (%)

>>> print(df.to_string())
                              sample_smiles  observed
0  COc1ccc(F)cc1C(=O)NCc1ccc(-c2nn([C@@H](C)C(F)(F)F)c(N)c2C(N)=O)cc1      1.74
1  O=C(c1ccc(Oc2ccccc2)cc1Cl)c1c[nH]c2ncnc(N[C@@H]3CC[C@@H](CO)OC3)c12     41.31
2  C=CC(=O)N1CCC[C@@H](n2nc(-c3ccc(Oc4ccccc4)cc3)c3c(N)ncnc32)C1      5.25
3  CC#CC(=O)N1CCC[C@H]1c1nc(-c2ccc(C(=O)Nc3ccccn3)cc2)c2c(N)nccn12      5.31

----------
Percentage inhibition of kinase enzyme activity reference
target of assay: EPHA1 (Homo sapiens)
Construct: purchased Carna Biosciences
Sequence (P21709 26-976): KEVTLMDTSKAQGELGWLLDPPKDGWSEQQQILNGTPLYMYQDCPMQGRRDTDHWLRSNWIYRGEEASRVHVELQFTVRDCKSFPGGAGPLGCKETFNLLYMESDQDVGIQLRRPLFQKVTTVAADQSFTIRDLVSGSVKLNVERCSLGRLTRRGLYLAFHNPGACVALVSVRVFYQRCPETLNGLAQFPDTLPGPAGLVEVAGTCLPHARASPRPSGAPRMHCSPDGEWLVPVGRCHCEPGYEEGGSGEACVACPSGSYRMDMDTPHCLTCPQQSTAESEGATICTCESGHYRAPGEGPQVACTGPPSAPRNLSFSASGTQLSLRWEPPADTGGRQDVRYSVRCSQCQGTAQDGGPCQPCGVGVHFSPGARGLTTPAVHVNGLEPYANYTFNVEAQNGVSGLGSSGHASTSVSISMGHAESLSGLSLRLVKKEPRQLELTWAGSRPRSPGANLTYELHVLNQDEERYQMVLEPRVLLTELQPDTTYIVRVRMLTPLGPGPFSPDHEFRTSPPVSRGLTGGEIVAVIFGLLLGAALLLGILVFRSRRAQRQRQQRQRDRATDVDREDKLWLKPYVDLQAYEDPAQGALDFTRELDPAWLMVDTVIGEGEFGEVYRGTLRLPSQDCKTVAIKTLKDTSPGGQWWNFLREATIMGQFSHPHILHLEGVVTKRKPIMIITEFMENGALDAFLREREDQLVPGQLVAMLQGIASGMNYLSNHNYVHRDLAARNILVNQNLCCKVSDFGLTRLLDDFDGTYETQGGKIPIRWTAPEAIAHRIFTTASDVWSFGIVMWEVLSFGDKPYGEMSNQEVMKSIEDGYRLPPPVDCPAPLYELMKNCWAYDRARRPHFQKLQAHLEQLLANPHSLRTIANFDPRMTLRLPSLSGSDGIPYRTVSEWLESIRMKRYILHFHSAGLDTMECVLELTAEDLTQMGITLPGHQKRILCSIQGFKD
measurement protocol: Kinase panel profiling at 1 µmol/L (mobility shift assay, Carna)
Type: biochemical
experimental conditions: 1 µmol/L of BTK inhibitor
endpoint label: Percentage inhibition of kinase enzyme activity

                                   molecule  observed
0  C=CC(=O)N1CCC[C@@H](n2nc(-c3ccc(Oc4ccccc4)cc3)c3c(N)ncnc32)C1 [ibrutinib]    49.82%
1  COc1ccc(F)cc1C(=O)NCc1ccc(-c2nn([C@@H](C)C(F)(F)F)c(N)c2C(N)=O)cc1 [pirtobrutinib]    -1.27%
2  O=C(c1ccc(Oc2ccccc2)cc1Cl)c1c[nH]c2ncnc(N[C@@H]3CC[C@@H](CO)OC3)c12 [nemtabrutinib]    58.54%
3  CC#CC(=O)N1CCC[C@H]1c1nc(-c2ccc(C(=O)Nc3ccccn3)cc2)c2c(N)nccn12 [acalabrutinib]    -0.59%
4  C=CC(=O)N1CCC([C@@H]2CCNc3c(C(N)=O)c(-c4ccc(Oc5ccccc5)cc4)nn32)CC1 [zanubrutinib]    -1.86%
